We begin with a simple list: items and their reported Kd.
- TARGET OR TEST SYSTEM: recombinant mouse CTLA-4 protein (mouse) (UniProt P09793)
- Sequence (P09793 36-161 limits assumed): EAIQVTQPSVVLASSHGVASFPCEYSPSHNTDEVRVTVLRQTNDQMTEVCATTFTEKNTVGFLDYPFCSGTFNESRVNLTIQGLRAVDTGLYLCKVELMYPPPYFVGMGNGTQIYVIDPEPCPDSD
- ASSAY COMMENT: SPR (Pioneer FE, OneStep), 25 C; 3xFLAG scFv captured by anti-FLAG M2, mouse CTLA-4 as analyte
Number in pM, nothing else.

The recorded Kd for entry 78-8D10 scFv (scFv, part only; not given: Linker, domain order, 3xFLAG tag, V domains shown, not shown: another chain or arm of the molecule; small tags and cut ends) VH: MEVQLVESGGGLVQPGGSLRLSCAASGFTFSSYVMHWVRQAPGKGLEWVSAISWSGRGTYYADSVKGRFTISRDNSKNTLYLQMNSLRAEDTAVYYCARGRLFGLALYGEAFDVWGQGTLVTVSS VL: DIQMTQSPSSLSASVGDRVTITCQASKDISNYLNWYQQKPGKAPKLLIYDASNLETGVPSRFSGSGSGTDFTFTISSLQPEDIATYYCQQFNSFPLTFGQGTKVEIK equals 490

The recorded Kd for entry 78-24D1 scFv (scFv, part only; not given: Linker, domain order, 3xFLAG tag, V domains shown, not shown: another chain or arm of the molecule; small tags and cut ends) VH: EVQLVESGGGLVQPGGSLRLSCAASGFTFTSYSMHWVRQAPGKGLEWVSGISGSGRSTSYADSVKGRFTISRDNSKNTLYLQMNSLRAEDTAVYYCARDLMAFNLTRAGGFDVWGQGTLVTVSS VL: DIQMTQSPSSLSASVGDRVTITCQASQDISNFLNWYQQKPGKAPKLLIYDASNLETGVPSRFSGSGSGTDFTFTISSLQPEDIATYYCQQGDAWPWTFGQGTKVEIK equals 59

The recorded Kd for entry 78-24D12 scFv (scFv, part only; not given: Linker, domain order, 3xFLAG tag, V domains shown, not shown: another chain or arm of the molecule; small tags and cut ends) VH: EVQLVESGGGLVQPGGSLRLSCAASGFTFSSYSMHWVRQAPGKGLEWVSGISGSGLSTSYADSVKGRFTISRDNSKNTLYLQMNSLRAEDTAVYYCARDLMAFNLTRTGGFDVWGQGTLVTVSS VL: DIQMTQSPSSLSASVGDRVTITCQASHDILNYLNWYQQKPGKAPKLLIYDASNLETGVPSRFSGSGSGTDFTFTISSLQPEDIATYYCQQGHAWLWTFGQGTKVEIK equals 10
